Recorded values, source ChEMBL document CHEMBL1130994.

- Tested on: Klebsiella aerogenes
- TEST_DESCRIPTION: Compound was evaluated for inhibitory activity against C32 Enterobacter aerogenes
- Type: functional
PARAMETER: MIC (µM)
All answers are understood in µM, so give the number only.

CS(=O)(=O)Nc1cccc([C@@H](N)C(=O)N[C@@H]2C(=O)N3C(C(=O)O)=C(C(F)(F)F)CC[C@H]23)c1 = 2
N[C@@H](C(=O)N[C@@H]1C(=O)N2C(C(=O)O)=C(C(F)(F)F)CC[C@H]12)c1ccc(O)cc1 = 0.25
N[C@@H](C(=O)N[C@@H]1C(=O)N2C(C(=O)O)=C(C(F)(F)F)CC[C@H]12)c1cccc(C(F)(F)F)c1 = 128
Cc1ccc([C@@H](N)C(=O)N[C@@H]2C(=O)N3C(C(=O)O)=C(C(F)(F)F)CC[C@H]23)cc1 = 8
N[C@@H](C(=O)N[C@@H]1C(=O)N2C(C(=O)O)=C(C(F)(F)F)CC[C@H]12)c1ccccc1 = 4

Input: Give its MIC value. Item: N[C@@H](C(=O)N[C@@H]1C(=O)N2C(C(=O)O)=C(C(F)(F)F)CC[C@H]12)c1cccc(Br)c1
Output: 16

Input: Give its MIC value. Item: N[C@@H](C(=O)N[C@@H]1C(=O)N2C(C(=O)O)=C(C(F)(F)F)CC[C@H]12)c1cccc(F)c1
Output: 16

Input: Give its MIC value. Item: N[C@@H](C(=O)N[C@@H]1C(=O)N2C(C(=O)O)=C(C(F)(F)F)CC[C@H]12)c1ccc(O)c(Cl)c1
Output: 2

Input: Give its MIC value. Item: Nc1ccc([C@@H](N)C(=O)N[C@@H]2C(=O)N3C(C(=O)O)=C(C(F)(F)F)CC[C@H]23)cc1
Output: 8

Input: Give its MIC value. Item: N[C@@H](C(=O)N[C@@H]1C(=O)N2C(C(=O)O)=C(Cl)CS[C@H]12)c1ccccc1 [CEFACLOR ANHYDROUS]
Output: 32

Input: Give its MIC value. Item: Cc1cccc([C@@H](N)C(=O)N[C@@H]2C(=O)N3C(C(=O)O)=C(C(F)(F)F)CC[C@H]23)c1
Output: 32

Input: Give its MIC value. Item: CCS(=O)(=O)Nc1cccc([C@@H](N)C(=O)N[C@@H]2C(=O)N3C(C(=O)O)=C(C(F)(F)F)CC[C@H]23)c1
Output: 16

Input: Give its MIC value. Item: N[C@@H](C(=O)N[C@@H]1C(=O)N2C(C(=O)O)=C(C(F)(F)F)CC[C@H]12)c1ccc(F)cc1
Output: 8

Input: Give its MIC value. Item: N[C@@H](C(=O)N[C@@H]1C(=O)N2C(C(=O)O)=C(C(F)(F)F)CC[C@H]12)c1ccc(Cl)c(Cl)c1
Output: 128

----------
- Test system: Citrobacter
- TEST_DESCRIPTION: Compound was evaluated for inhibitory activity against CF17 Citrobacter
- Format: functional
PARAMETER: MIC
Numeric answer plus unit only.

Observe how each entry below is paired with its result.
N[C@@H](C(=O)N[C@@H]1C(=O)N2C(C(=O)O)=C(C(F)(F)F)CC[C@H]12)c1ccc(O)cc1 = 4 µM
N[C@@H](C(=O)N[C@@H]1C(=O)N2C(C(=O)O)=C(C(F)(F)F)CC[C@H]12)c1ccc(F)cc1 = 8 µM
N[C@@H](C(=O)N[C@@H]1C(=O)N2C(C(=O)O)=C(Cl)CS[C@H]12)c1ccccc1 [CEFACLOR ANHYDROUS] = 128 µM

Input: Give its MIC value. Item: Nc1ccc([C@@H](N)C(=O)N[C@@H]2C(=O)N3C(C(=O)O)=C(C(F)(F)F)CC[C@H]23)cc1
Output: 16 µM

Input: Give its MIC value. Item: Cc1cccc([C@@H](N)C(=O)N[C@@H]2C(=O)N3C(C(=O)O)=C(C(F)(F)F)CC[C@H]23)c1
Output: 16 µM
